Species on record: Homo sapiens
Experiment: To identify inhibition of the IFN signalling (Jak-Stat) pathway via expression of an eGFP reporter gene under the control of an IFN-stimulated response element (ISRE) containing MxA promoter.
Assay type: functional
Parameters: scale not given: direction of the effect not stated beside the values
Conditions: 30 µM
For each of the molecules below, state its Percent Effect.
# answer = value followed by unit

Solved entries (count: 4):
>  <MOLECULE>
CCNC(=O)CCN1CCC(c2cc(N3CCOCC3)nc(C)n2)CC1

>  <Percent Effect>
17.2%

$$$$
>  <MOLECULE>
O=C(CCCNc1ncccn1)N1CCCC(n2cccn2)C1 (stereo unspecified)

>  <Percent Effect>
14.1%

$$$$
>  <MOLECULE>
Cc1cc(C)n(-c2cc(N3CCN(C(=O)C(C)(C)C)CC3)nc(C)n2)n1

>  <Percent Effect>
26.8%

$$$$
>  <MOLECULE>
COCC(c1cccc(C(F)(F)F)c1)N(C)C(=O)c1cc(C)no1 (stereo unspecified)

>  <Percent Effect>
10.2%

$$$$

Hi, could you look up Percent Effect for each item in my list?
1. CC(C)n1[nH]c(=O)c2c1NC(=O)CC2c1cccnc1 (stereo unspecified)
2. CCc1ccc(O)c(C(=O)NC2CCN(S(=O)(=O)CC)CC2)c1

output:
1. 23.6%
2. 20.5%
